- Test system: Tetranychus urticae
- test-name: Acaricidal activity against Tetranychus urticae (two-spotted spider mite) in compound treated kidney bean leaf assessed as mortality of egg at 24 degC measured after 1 week
- Assay type: functional
- assay-context: 168 h
# strict inequality: LC50 < 1000 nM yields yes, everything else yields no

{"compound": "CCCOc1cc(C(C)C)ccc1C1COC(c2c(F)cccc2F)=N1 (stereo unspecified)", "system": "Tetranychus urticae", "class-label": "yes"}
{"compound": "CCCCCCCCCc1ccc(C2COC(c3c(F)cccc3F)=N2)c(OC)c1 (stereo unspecified)", "system": "Tetranychus urticae", "class-label": "yes"}
{"compound": "CN(C)c1ccc(C2COC(c3c(F)cccc3F)=N2)cc1 (stereo unspecified)", "system": "Tetranychus urticae", "class-label": "no"}
{"compound": "CCCCCCCCc1ccc(C2COC(c3c(F)cccc3F)=N2)c(OC)c1 (stereo unspecified)", "system": "Tetranychus urticae", "class-label": "yes"}
{"compound": "Fc1ccccc1C1COC(c2c(F)cccc2F)=N1 (stereo unspecified)", "system": "Tetranychus urticae", "class-label": "no"}

Ask: Record CCCCCCCCCCc1ccc(C2COC(c3c(F)cccc3F)=N2)c(Cl)c1 (stereo unspecified) : is its LC50 strictly below 1000 nM?
Reply: no

Ask: Record CCOc1cccc(C2COC(c3c(F)cccc3F)=N2)c1 (stereo unspecified) : is its LC50 strictly below 1000 nM?
Reply: no

Ask: Record CCCCCCCCc1ccc(C2COC(c3c(F)cccc3F)=N2)c(Cl)c1 (stereo unspecified) : is its LC50 strictly below 1000 nM?
Reply: yes

Ask: Record CC(C)Sc1ccc(C2COC(c3c(F)cccc3F)=N2)cc1 (stereo unspecified) : is its LC50 strictly below 1000 nM?
Reply: no

Ask: Record CCc1ccccc1C1COC(c2c(F)cccc2F)=N1 (stereo unspecified) : is its LC50 strictly below 1000 nM?
Reply: no

Ask: Record Fc1cccc(F)c1C1=NC(c2ccc(OC(F)(F)F)cc2)CO1 (stereo unspecified) : is its LC50 strictly below 1000 nM?
Reply: yes

----------
Listed here are molecules together with their documented log10(LC50).
- Test system: Tetranychus urticae
- test-name: Acaricidal activity against Tetranychus urticae (two-spotted spider mite) in compound treated kidney bean leaf assessed as mortality of egg at 24 degC measured after 1 week
- Type: functional
- assay-context: 168 h
Quick note: numbers are log10 of LC50, with µM as the unit.

Examples with answers:
{"molecule": "CCCCOc1ccc(C2COC(c3c(F)cccc3F)=N2)cc1 (configuration not stated)", "system": "Tetranychus urticae", "measured-value": -2.82}
{"molecule": "CSc1ccc(C2COC(c3c(F)cccc3F)=N2)cc1 (configuration not stated)", "system": "Tetranychus urticae", "measured-value": 0.21}
{"molecule": "CCCCCCCCCCCCc1ccc(C2COC(c3c(F)cccc3F)=N2)cc1 (configuration not stated)", "system": "Tetranychus urticae", "measured-value": -2.93}
{"molecule": "COc1cccc(C2COC(c3c(F)cccc3F)=N2)c1 (configuration not stated)", "system": "Tetranychus urticae", "measured-value": 1.24}
{"molecule": "CS(=O)(=O)c1ccc(C2COC(c3c(F)cccc3F)=N2)cc1 (configuration not stated)", "system": "Tetranychus urticae", "measured-value": 3.17}

The molecule Cc1ccccc1C1COC(c2c(F)cccc2F)=N1 (configuration not stated) showed log10(LC50) equal to 2.26

The molecule COc1ccc(C2COC(c3c(F)cccc3F)=N2)cc1 (configuration not stated) showed log10(LC50) equal to 1.24

The molecule C[Si](C)(C)c1ccc(C2COC(c3c(F)cccc3F)=N2)cc1 (configuration not stated) showed log10(LC50) equal to -2.82

The molecule Fc1cc(C2COC(c3c(F)cccc3F)=N2)ccc1Cl (configuration not stated) showed log10(LC50) equal to -0.79

The molecule CCCCCCCCCSc1ccc(C2COC(c3c(F)cccc3F)=N2)cc1 (configuration not stated) showed log10(LC50) equal to -0.92

The molecule CC(C)Cc1ccc(C2COC(c3c(F)cccc3F)=N2)cc1 (configuration not stated) showed log10(LC50) equal to -2.80

The molecule Fc1cccc(F)c1C1=NC(c2cccc(Cl)c2)CO1 (configuration not stated) showed log10(LC50) equal to 1.23
